# experimental details: physchem
# measurement parameters: buffer, pH 6.5
Kindly apply the following: Yes if logD is less than 2, No in every other case.

## Task # strict comparison: is reported logD < 2? input = O=C(O)[C@H]1CC[C@@H](n2nc(Oc3c(Cl)cccc3Cl)c3ccccc32)CC1
## Result No

###

// reported pIC50 for each item listed
# tested system: Retinoic acid receptor gamma (Homo sapiens)
# Sequence (P13631 whole entry): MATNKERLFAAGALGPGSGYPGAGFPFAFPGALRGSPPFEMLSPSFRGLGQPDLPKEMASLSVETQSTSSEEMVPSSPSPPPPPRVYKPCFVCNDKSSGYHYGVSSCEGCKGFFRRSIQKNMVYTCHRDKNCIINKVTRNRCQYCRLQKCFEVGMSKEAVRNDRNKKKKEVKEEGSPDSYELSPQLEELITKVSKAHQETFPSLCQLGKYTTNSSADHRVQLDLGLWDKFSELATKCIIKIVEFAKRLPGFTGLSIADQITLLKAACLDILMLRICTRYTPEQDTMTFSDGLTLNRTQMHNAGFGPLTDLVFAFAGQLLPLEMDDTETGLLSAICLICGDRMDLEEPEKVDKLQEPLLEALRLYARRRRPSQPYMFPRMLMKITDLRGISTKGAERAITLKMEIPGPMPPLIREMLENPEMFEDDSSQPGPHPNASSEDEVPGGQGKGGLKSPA
pIC50: −log10 of the molar value.

Illustrative cases are given below, each with its answer.
>>> observed_value("CN(C)C(=O)c1ccc2c(c1)c(S(=O)(=O)c1c(Cl)cccc1Cl)nn2-c1ccc(C(=O)O)cc1")
"< 5.00"
>>> observed_value("O=C(O)c1ccc(-n2nc(S(=O)(=O)c3c(Cl)cccc3Cl)c3ccccc32)cc1")
5.08

## Task So what does the record say about pIC50 for CN(C)C(=O)c1ccc2c(c1)c(Sc1c(F)cccc1Cl)nn2-c1ccc(C(=O)O)cc1 ?
## Result < 5.00

## Task // lookup pIC50 for CN(C)C(=O)c1ccc2c(c1)c(Oc1c(Cl)cccc1Cl)nn2-c1ccc(C(=O)O)cc1
## Result < 5.00

## Task Give its pIC50 value. Item: CN(C)C(=O)c1ccc2c(Oc3c(Cl)cccc3Cl)nn(-c3ccc(C(=O)O)cc3)c2c1
## Result < 5.00

Data origin, for the record: ChEMBL document CHEMBL3867469
